For each of the binders below, state its Kd.
- Assayed System: T1, Dimeric fibrinogen-like domain of monkey (Macca fascicularis) Ang-2 conjugated to human IgG1 (monkey (Macca fascicularis))
- T1 construct: also called Dimeric Monkey Ang-2FD; Monkey Ang-2FD-hFc
- T1 sequence (chain, as listed by the source limits assumed): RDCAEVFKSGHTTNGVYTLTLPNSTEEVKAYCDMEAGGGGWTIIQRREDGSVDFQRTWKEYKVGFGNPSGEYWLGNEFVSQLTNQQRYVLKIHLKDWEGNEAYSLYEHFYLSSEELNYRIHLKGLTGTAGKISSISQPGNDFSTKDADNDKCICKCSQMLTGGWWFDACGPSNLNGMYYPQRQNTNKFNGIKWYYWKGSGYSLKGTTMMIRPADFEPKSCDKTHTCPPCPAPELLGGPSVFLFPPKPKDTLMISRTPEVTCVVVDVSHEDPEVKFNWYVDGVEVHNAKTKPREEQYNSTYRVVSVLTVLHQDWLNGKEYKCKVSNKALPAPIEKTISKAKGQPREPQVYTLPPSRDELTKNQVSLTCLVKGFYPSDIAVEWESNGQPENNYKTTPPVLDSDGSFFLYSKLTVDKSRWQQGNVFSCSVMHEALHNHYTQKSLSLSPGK
- Test Method Notes: SPR, hIgG1 antibody captured, room temp
A number alone suffices; assume nM.

Exam item: Value lookup for Kd; key = H1H695P (antibody, V domains shown) VH: QVQLVESGGGVVQPGRSLRLSCAASGFTFSSYGMHWVRQAPGKGLEWVAVMWYDETNKYYADSVKGRFTISRDNSKNTLYLQMNSLRAEDTAVYYCARYSGYEDYYHGMDVWGQGTTVTVS VL: EIVMTQSPATPSVSPGERATLSCRASQSISSNLAWYQQKPGQAPRLLIYGASTRATGIPARFSGSGSGTEFTLTISSLQSEDFAVYYCQHYNNWITFGQGTRLEIK
Marked response: 0.44

Exam item: Value lookup for Kd; key = H1H750N (antibody, V domains shown) VH: QVKLVESGGGVVQPGRSLRVSCAASGFTFSSYGMHWVRQAPGKGLEWLAIIWYDGDNKYYSDSVKGRFTISRDNSKNTLYLQMNSLRAEDTAEYYCVRDASIASRFLDYWGQGTLVTVSS VL: DIQMTQSPSSLSASIGDRVTITCRATQDINNYLAWFQQKPGKAPKSLIYATSNLQSGVPSKFSGSGSGTDYTLTISSLQPEDFSTYYCQQYHSYPLTFGGGTKVEIK
Marked response: 0.199
